Biological target: KMT9 (Homo sapiens)
Sequence (Q9Y5N5 1-214): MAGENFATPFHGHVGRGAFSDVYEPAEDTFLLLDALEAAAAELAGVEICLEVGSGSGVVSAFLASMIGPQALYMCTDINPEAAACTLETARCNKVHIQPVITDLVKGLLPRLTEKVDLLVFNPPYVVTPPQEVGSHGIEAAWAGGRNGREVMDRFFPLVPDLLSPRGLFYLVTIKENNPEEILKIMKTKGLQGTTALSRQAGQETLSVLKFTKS
Sequence (Q9UI30 1-120 isoform Q9UI30-2 partner): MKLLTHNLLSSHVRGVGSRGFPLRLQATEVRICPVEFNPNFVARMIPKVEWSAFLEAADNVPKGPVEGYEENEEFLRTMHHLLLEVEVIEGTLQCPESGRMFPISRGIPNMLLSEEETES
Test: KMT9 thermal shift assay (SyproOrange)
Type: binding
Conditions: ΔTm; 500 µM compound, 2 μM KMT9, 5X SO; read-out: Thermal shift
Property: ΔTm at 500 µM; scope: individual molecules

Q: Report ΔTm at 500 µM for Nc1ncnc2c1c(-c1ccncn1)cn2[C@@H]1C[C@H](CNCCCNCCc2ccccc2)[C@@H](O)[C@H]1O please.
A: 15 to 20 °C

Q: Find the recorded ΔTm at 500 µM belonging to CNc1ncnc2c1ccn2[C@@H]1C[C@H](C(=O)NCCNCCc2cccc(Oc3ccccc3)c2)[C@@H](O)[C@H]1O and report it.
A: 10 to 15 °C

Q: Tell me the measured ΔTm at 500 µM of CN1CC=C(c2cn([C@@H]3C[C@H](CNCCCNCCc4ccccc4)[C@@H](O)[C@H]3O)c3ncnc(N)c23)CC1 , please.
A: 10 to 15 °C

Others:
Q: What value of ΔTm at 500 µM has been recorded for this entry: Nc1nc(Cl)nc2c1c(-c1ccn(Cc3ccccc3)n1)cn2[C@@H]1C[C@H](CNCCCNCCc2ccccc2)[C@@H](O)[C@H]1O
A: > 20 °C
